experimental target: sigma receptors
test: Sigma receptor binding assay, displacement of [³H]DTG
conditions: guinea pig brain membrane homogenates, radioligand [³H]DTG […], 90 minutes at room temperature; read-out: IC₅₀ binding values
pIC50: −log10 of the molar value.
measurement type: pIC50

                                   molecule  measurement_type  observed_result
0  Cc1cccc(C)c1NC(=N)Nc1c(C)cccc1C [DXG, N,N'-di-(2,6-dimethylphenyl)-guanidine]             pIC50             7.05
1  Cc1ccccc1NC(=N)NC1C2CC3CC(C2)CC1C3 (stereo not drawn)             pIC50             8.15
2  Cc1ccccc1NC(=N)N[C@H]1C[C@@H]2CC[C@H]1C2 (relative stereo)             pIC50             8.15

Data credit: patent EP0473671B1
